Procedure details: Particle size distribution of potassium clavulanate crystalline forms
Assay type: physicochemical
Experimental context: crystalline form comparison, Example 5
As shown below, each of these compounds has a reported Particle Size Distribution value.

Reference set (3 entries):
>  <Compound>
O=C(O)[C@H]1/C(=C/CO)O[C@@H]2CC(=O)N21 [Starbursts/Broken Starbursts, potassium clavulanate]

>  <Particle Size Distribution>
33.5-70.5 microns

$$$$
>  <Compound>
O=C(O)[C@H]1/C(=C/CO)O[C@@H]2CC(=O)N21 [Rosettes, potassium clavulanate]

>  <Particle Size Distribution>
34.8- 66.4 microns

$$$$
>  <Compound>
O=C(O)[C@H]1/C(=C/CO)O[C@@H]2CC(=O)N21 [Rosette-like Starbursts, potassium clavulanate]

>  <Particle Size Distribution>
35.1- 97.9 microns

$$$$

// next entry
Determine from records and report Particle Size Distribution for O=C(O)[C@H]1/C(=C/CO)O[C@@H]2CC(=O)N21 [Needles/rods, potassium clavulanate]
34.1-67.3 microns

Values were extracted from patent US6414142B1.
